Tested on: NCI-H522
assay-comment: Growth inhibition of human NCI-H522 cells after 48 hrs by sulforhodamine B assay
Type: functional
condition-set: NCI-H522, 48 h
Exam item: assign TRUE to entries whose TGI is below 7 µM and FALSE to entries at or above 7 µM. Note that a value of exactly 7 µM receives FALSE.

A record lists "COc1cc(C)cc(-c2c(-c3ccnc(-c4ccc(N(C)C)cc4)c3)cnn2CC#N)c1" . Is its TGI below 7 µM? TRUE

A record lists "Cc1cc(O)cc(-c2nn(CC#N)cc2-c2ccnc(-c3ccc(Oc4ccccc4)cc3)c2)c1" . Is its TGI below 7 µM? FALSE

A record lists "COc1cc(C)cc(-c2nn(CC#N)cc2-c2ccnc(-c3ccc(N(C)C)cc3)c2)c1" . Is its TGI below 7 µM? TRUE

A record lists "COc1cc(C)cc(-c2nn(CC#N)cc2-c2ccc(-c3cccc(C(C)=O)c3)nc2)c1" . Is its TGI below 7 µM? TRUE

###

Tested on: TK-10
assay-comment: Cytotoxicity against human TK10 cells assessed as cell growth at 0.001 uM after 48 hrs by sulforhodamine B assay
Format: functional
condition-set: TK-10, 48 h, read-out: Activity
I'd be grateful if you could share measured growth at 0.001 µM for these entries.
Give your result in % as a bare value.

Recorded growth at 0.001 µM of "COc1cc(C)cc(-c2c(-c3ccnc(-c4ccc(N(C)C)cc4)c3)cnn2CC#N)c1" , please. 99

Recorded growth at 0.001 µM of "Cc1cc(O)cc(-c2nn(CC#N)cc2-c2ccnc(-c3ccc(N(C)C)cc3)c2)c1" , please. 105

Recorded growth at 0.001 µM of "Cc1cc(O)cc(-c2nn(CC#N)cc2-c2ccnc(-c3ccc(Oc4ccccc4)cc3)c2)c1" , please. 91

Recorded growth at 0.001 µM of "COc1cc(C)cc(-c2nn(CC#N)cc2-c2ccnc(-c3ccc(N(C)C)cc3)c2)c1" , please. 109

Recorded growth at 0.001 µM of "COc1cc(C)cc(-c2nn(CC#N)cc2-c2ccc(-c3cccc(C(C)=O)c3)nc2)c1" , please. 99

Recorded growth at 0.001 µM of "COc1cc(C)cc(-c2c(-c3ccnc(-c4ccc(C(C)=O)cc4)c3)cnn2CC#N)c1" , please. 103

###

I'd be grateful if you could share measured TGI for these entries.
assay-comment: Growth inhibition of human Hs 578T cells after 48 hrs by sulforhodamine B assay
Format: functional
Give your result in µM as a bare value.

Recorded TGI of "COc1cc(C)cc(-c2c(-c3ccnc(-c4ccc(C(C)=O)cc4)c3)cnn2CC#N)c1" , please. 5.68

Recorded TGI of "Cc1cc(O)cc(-c2nn(CC#N)cc2-c2ccnc(-c3ccc(Oc4ccccc4)cc3)c2)c1" , please. 6.08

Recorded TGI of "COc1cc(C)cc(-c2nn(CC#N)cc2-c2ccnc(-c3ccc(N(C)C)cc3)c2)c1" , please. 0.695

Recorded TGI of "Cc1cc(O)cc(-c2nn(CC#N)cc2-c2ccnc(-c3ccc(N(C)C)cc3)c2)c1" , please. 7

Recorded TGI of "COc1cc(C)cc(-c2nn(CC#N)cc2-c2ccc(-c3cccc(C(C)=O)c3)nc2)c1" , please. 3.87

###

System: SF-295
assay-comment: Growth inhibition of human SF295 cells after 48 hrs by sulforhodamine B assay
Type: functional
condition-set: SF-295, 48 h
I'd be grateful if you could share measured log10 of GI50 for these entries.
Log scale reminder: GI50 in nM, then log10 taken.

Recorded log10 of GI50 of "COc1cc(C)cc(-c2nn(CC#N)cc2-c2ccnc(-c3ccc(N(C)C)cc3)c2)c1" , please. 2.48

Recorded log10 of GI50 of "COc1cc(C)cc(-c2c(-c3ccnc(-c4ccc(C(C)=O)cc4)c3)cnn2CC#N)c1" , please. 3.77

Recorded log10 of GI50 of "Cc1cc(O)cc(-c2nn(CC#N)cc2-c2ccnc(-c3ccc(N(C)C)cc3)c2)c1" , please. 3.34

Recorded log10 of GI50 of "Cc1cc(O)cc(-c2nn(CC#N)cc2-c2ccnc(-c3ccc(Oc4ccccc4)cc3)c2)c1" , please. 3.65

Recorded log10 of GI50 of "COc1cc(C)cc(-c2c(-c3ccnc(-c4ccc(N(C)C)cc4)c3)cnn2CC#N)c1" , please. 1.72

Recorded log10 of GI50 of "COc1cc(C)cc(-c2nn(CC#N)cc2-c2ccc(-c3cccc(C(C)=O)c3)nc2)c1" , please. 3.42
